Organism: Homo sapiens
Assay: Selectivity index, ratio of IC50 for human recombinant MAO-B to IC50 for human recombinant MAO-A
REPORTED ENDPOINT: Ratio IC50

Worked cases, answers included:
[[record]]
chem_smiles = "O=C1NC(=O)c2cc3c(cc21)cc(-c1ccccc1)n3O"
result = "< 0.83"

[[record]]
chem_smiles = "O=C(Cc1cc2c(cc1[N+](=O)[O-])C(=O)NC2=O)c1cccs1"
result = "> 16"

[[record]]
chem_smiles = "COn1c(-c2ccc(C)cc2)c(Br)c2cc(C#N)c(C#N)cc21"
result = "< 0.075"

[[record]]
chem_smiles = "COC(=O)c1cc2cc(-c3ccc(OC)cc3)n(OC)c2cc1C(=O)OC"
result = "> 5.3"

[[record]]
chem_smiles = "COc1ccc(-c2c(CO)c3cc(C#N)c(C#N)cc3n2OC)cc1"
result = "> 88"


Which value of Ratio IC50 has been reported for O=C1NC(=O)c2cc3c(cc21)cc(-c1cccs1)n3O in the records?
> 16

Which value of Ratio IC50 has been reported for COc1ccc(C(=O)Cc2cc3c(cc2[N+](=O)[O-])C(=O)N(Cc2ccccc2)C3=O)cc1 in the records?
> 18

Which value of Ratio IC50 has been reported for O=C1NC(=O)c2cc3c(Cl)c(-c4ccccc4)[nH]c3cc21 in the records?
> 400

Which value of Ratio IC50 has been reported for COc1ccc(-c2c(C=O)c3cc(C#N)c(C#N)cc3n2OC)cc1 in the records?
> 680
